Test system: Mast/stem cell growth factor receptor Kit (Homo sapiens), P10721 [D816V]
Sequence (P10721 whole entry D816V): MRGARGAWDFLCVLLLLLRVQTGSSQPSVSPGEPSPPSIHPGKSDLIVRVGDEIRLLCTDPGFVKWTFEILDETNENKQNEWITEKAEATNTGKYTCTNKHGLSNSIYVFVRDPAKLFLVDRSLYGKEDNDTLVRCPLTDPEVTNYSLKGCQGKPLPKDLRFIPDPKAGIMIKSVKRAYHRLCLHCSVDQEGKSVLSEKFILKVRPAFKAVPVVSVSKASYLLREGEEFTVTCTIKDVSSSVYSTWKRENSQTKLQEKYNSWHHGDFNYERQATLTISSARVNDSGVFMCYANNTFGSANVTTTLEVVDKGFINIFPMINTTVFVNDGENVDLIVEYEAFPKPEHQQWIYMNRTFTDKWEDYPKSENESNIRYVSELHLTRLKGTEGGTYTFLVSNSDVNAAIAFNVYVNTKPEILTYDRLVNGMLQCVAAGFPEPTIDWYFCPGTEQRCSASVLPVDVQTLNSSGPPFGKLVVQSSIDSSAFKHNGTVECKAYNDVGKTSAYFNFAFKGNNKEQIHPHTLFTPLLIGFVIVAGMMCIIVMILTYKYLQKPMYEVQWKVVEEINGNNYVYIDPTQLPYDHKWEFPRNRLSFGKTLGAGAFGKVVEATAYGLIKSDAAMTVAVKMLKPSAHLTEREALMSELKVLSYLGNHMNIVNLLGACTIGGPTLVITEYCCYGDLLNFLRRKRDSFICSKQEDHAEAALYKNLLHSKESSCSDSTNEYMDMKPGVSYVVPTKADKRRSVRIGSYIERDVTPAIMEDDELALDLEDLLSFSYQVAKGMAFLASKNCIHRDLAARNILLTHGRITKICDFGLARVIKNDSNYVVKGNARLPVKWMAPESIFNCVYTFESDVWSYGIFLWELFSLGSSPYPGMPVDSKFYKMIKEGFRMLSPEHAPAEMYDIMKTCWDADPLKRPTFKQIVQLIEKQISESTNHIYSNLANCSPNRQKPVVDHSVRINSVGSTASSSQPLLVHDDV
conditions: at 0.1 µM
experimentalEndpoint: inhibition (%)
Give bare numbers, in %.

COc1cc(N2CCN(C(C)C)CC2)ccc1Nc1nc(Nc2ccc(F)cc2C(=O)NC[C@@H](O)CO)c2cc[nH]c2n1
4.14

Hey, quick one: what's inhibition for each of these?
1. COc1cccc(/C=N/Nc2ncnc3c2cnn3-c2cccc(OC)c2)c1
2. FC(F)(F)c1cccc(Nc2nccc(-c3cnn4nc(-c5ccccc5)ccc34)n2)c1
3. COc1cc(Nc2ncc(-c3ccccc3)o2)cc(OC)c1OC
4. NS(=O)(=O)c1ccc(Nc2cc(-c3ccc(O)c(F)c3)n[nH]2)cc1

Response:
1: 2.28; 2: 1.06; 3: 0.53; 4: -3.97

====

targetOrTestSystem: Serine/threonine-protein kinase BRSK1 (Homo sapiens) (UniProt Q8TDC3);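 also: each value is a mean percent inhibition of BRSK1 kinase activity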
Sequence (Q8TDC3 whole entry): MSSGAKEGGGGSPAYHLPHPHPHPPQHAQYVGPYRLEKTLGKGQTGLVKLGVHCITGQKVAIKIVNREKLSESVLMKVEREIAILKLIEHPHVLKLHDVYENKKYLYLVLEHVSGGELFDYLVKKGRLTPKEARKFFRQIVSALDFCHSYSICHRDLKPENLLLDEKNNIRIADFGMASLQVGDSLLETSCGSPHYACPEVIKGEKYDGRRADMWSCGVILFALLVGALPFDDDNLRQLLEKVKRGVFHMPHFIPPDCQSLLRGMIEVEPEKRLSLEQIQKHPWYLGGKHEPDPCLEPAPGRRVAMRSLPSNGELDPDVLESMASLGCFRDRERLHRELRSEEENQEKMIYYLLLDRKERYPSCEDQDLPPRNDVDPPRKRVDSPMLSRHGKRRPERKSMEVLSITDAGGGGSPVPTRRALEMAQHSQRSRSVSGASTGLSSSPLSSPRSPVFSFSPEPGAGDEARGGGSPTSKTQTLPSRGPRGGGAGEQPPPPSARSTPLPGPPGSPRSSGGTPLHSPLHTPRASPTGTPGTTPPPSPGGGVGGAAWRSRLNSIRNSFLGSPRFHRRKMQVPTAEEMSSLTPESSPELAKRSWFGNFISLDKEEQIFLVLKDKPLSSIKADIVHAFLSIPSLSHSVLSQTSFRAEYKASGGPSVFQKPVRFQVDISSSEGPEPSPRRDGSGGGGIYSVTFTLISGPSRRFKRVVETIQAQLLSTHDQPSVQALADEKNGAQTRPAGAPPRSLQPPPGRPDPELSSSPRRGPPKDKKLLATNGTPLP
conditions: at 1 µM
For each entry below, report its inhibition value.
Numbers only, in %.

N#Cc1ccc(Oc2nccc(-c3c(-c4ccc(F)cc4)ncn3C3CCNCC3)n2)cc1
0.23

Hey, quick one: what's inhibition for each of these?
1. Nc1nccc(-c2c(-c3ccc(F)cc3)ncn2C2CCC(O)CC2)n1 (stereo not given)
2. CCS(=O)(=O)c1ccc(OC)c(Nc2ncc(-c3cccc(-c4ccccc4F)c3)o2)c1
3. COc1cc(Nc2ncc(-c3ccccc3)o2)cc(OC)c1OC
4. COc1cc2ncn(-c3cc(OCc4ccccc4C(F)(F)F)c(C(C)=O)s3)c2cc1OC
5. O=C(Nc1n[nH]c2nc(-c3ccc(O)cc3)c(Br)cc12)C1CC1
6. COc1cccc(-n2cnc3c(N/N=C/c4ccncc4)ncnc32)c1
7. CN(c1ccc(NC(=O)Nc2c(Cl)cccc2Cl)cc1)c1ccnc(Nc2cccc(CS(C)(=O)=O)c2)n1

Response:
1. 1.44
2. 0.8
3. 5.91
4. 4.41
5. 66.8
6. 4.34
7. 9.78

Hey, quick one: what's inhibition for each of these?
1. Cc1ccc(C(=O)NC2CCC2)cc1-c1ccc(C(=O)NCC2CC2)cc1
2. O=C1Nc2ccc(I)cc2C1=Cc1cc(Br)c(O)c(Br)c1
3. Cc1ccc(C(=O)NC(C)C)cc1-c1ccc(C(=O)NCC2CC2)cc1
4. COc1ccc2ncn(-c3cc(O[C@H](C)c4ccccc4Cl)c(C(N)=O)s3)c2c1
5. CS(=O)(=O)CCNCc1cc(-c2cc3c(Nc4ccc(OCc5cccc(F)c5)c(Cl)c4)ncnc3s2)cs1

Response:
3.1
0.15
-1.28
17.8
-0.77

Hey, quick one: what's inhibition for each of these?
1. NC(=O)c1ccc(Oc2nccc(-c3c(-c4ccc(F)cc4)ncn3C3CCNCC3)n2)cc1
2. Cc1nnc(-c2ccc(C)c(-c3ccc(C(=O)NCc4ccc(Cl)cc4)cc3)c2)o1
3. COc1cc(C)c(N(C)C(=O)CN(C)C)cc1Nc1nc(Nc2cccc(F)c2C(N)=O)c2cc[nH]c2n1
4. COc1ccc2cc(-c3c(-c4ccncc4)nc(-c4ccc([S+](C)[O-])cc4C)n3C)ccc2c1 (stereo not given)
5. COc1cccc(/C=N/Nc2ncnc3c2cnn3-c2cccc(OC)c2)c1

Response:
-0.49
-2.87
-0.02
3.28
-0.97

Hey, quick one: what's inhibition for each of these?
1. NC(=O)c1cc(-c2ccc(F)cc2)cc(-c2ccncc2)c1N
2. COc1ccc2cc(-c3c(-c4ccncc4)nc(-c4ccc(S(C)(=O)=O)cc4C)n3C)ccc2c1

Response:
[-1.89, 1.23]
